Each entry below carries its recorded EC90 of neutralisation of CHIKV-LR (FRNT on Vero cells).
target: CHIKV pE2-E1 (E3-E2-E1) of the CHIKV-LR strain (Chikungunya virus La Reunion 2006 OPY-1 …, strain); test: cell-based or functional assay
Express it in µg/mL; write the number only.

Binder: CHK-263 (mouse monoclonal antibody) (antibody, V domains shown) VH: QVQLQQSGAELVKPGASVKISCKASGYAFSSYWMNWVKQRPGKGLEWIGQIYPGDGDTNYNGKFKGKATLTADKSSSTAYMQLSSLTSEDSAVYFCARGGLTIDYWGQGTTLTVSS VL: DIVLTQSPATLSVTPGDSVSLSCRASQSISDNLHWYQQKSHESPGLLIKYASQSISGIPSRFSGSGSGTDFTLSINSVETEDFGMYFCQQSNSWPYTFGGGTKLEIK
Unit Tag: µg/mL
Meas Value: 0.136

Would you mind telling me what EC90 of neutralisation of CHIKV-LR (FRNT on Vero cells) value was observed for CHK-152 (mouse monoclonal antibody) (antibody, V domains shown, mouse VH of CHK-152; mouse IgG heavy-chain constant region; mouse VL of CHK-152; mouse light-chain constant region; also called murine CHK-152; mouse CHK-152) VH: QVQLQQPGAALVKPGASAMMSCKASGYTFTSYWITWVKQRPGQGLEWIGDIYPGTGRTIYKEKFKTKATLTVDTSSSTAFMQLNSLTSEDSAVYYCARGYGSPYYALDYWGQGTSVTVSS VL: DIVLTQSPASLAVSQGQRATISCKASQSVDYDGDSYVNWYQQKPGQSPKLLIYDASNLESGIPARFSGSGSGTDFTLNIHPVEEEDVATYYCQESNEDPRTFGGGTKLEIK ?
0.01

What do you have for CHK-102 (mouse monoclonal antibody) (antibody, V domains shown) VH: QVQLQQSGAELVKPGASVKISCKTSGYAFSSFWMHWVKQRPGKGLEWIGQIYPGDGDTNYNGKFKDKATLTADKSSNTAYMQLTSLTSEDSAVYFCARNLLFDYWGQGTTLTVSS VL: EILMTQSPAILSVSPGERVSFSCRASQSIGSNIHWYQQRTNGSPRLLIKYASESISGIPSRFSGSGSGTDFTLSINSVESEDIADYYCQQNNIWPFTFGSGTKLEIK ?
0.351

What do you have for CHK-166 (mouse monoclonal antibody) (antibody, V domains shown) VH: EVRLVESGGGLEQPGGSLKLSCAASGFTFSDYFMYWVRQTPEKRLEWVAYISNGGISTFYSDAVKGRFTISRDNARNTLYLQMSRLKSEDTAIYYCVRQVYGQGYFDYWGQGTTLAVSS VL: QIVLIQSPAIMSASLGERVTMTCTASSSVSSSYLHWYQQKPGSSPKLWIYSSFSLASGVPARFSGSGSGTSYSLTISTMEAEDAATYYCHQYLRSPWTFGGGSKLEIK ?
8.6
